species: Mus musculus; test: Protection index, ratio of TD50 for Swiss albino mouse by rotarod test to ED50 for Swiss albino mouse by maximal electroshock test; format: functional
quantity name: Ratio TD50/ED50

CN1C(=O)C(c2ccccc2)CC(c2ccccc2)C1=O (stereo not given) : 21.8

The recorded Ratio TD50/ED50 for entry O=C1C(c2ccccc2)CC(c2ccccc2)C(=O)N1c1ccccc1 (stereo not given) equals 3.7

Value of Ratio TD50/ED50 reported for the compound O=C1NC(=O)C(c2ccccc2)CC1c1ccccc1 (stereo not given) is 17.5

Looking up CN1C(=O)C(c2ccccc2Cl)CC(c2ccccc2Cl)C1=O (stereo not given) , I found its Ratio TD50/ED50 recorded as 9.2

Reported Ratio TD50/ED50 of O=C1C(c2ccccc2Cl)CC(c2ccccc2Cl)C(=O)N1c1cccc(Cl)c1 (stereo not given) : 1.8

====

system: Mus musculus; test: Neurotoxicity in Swiss albino mouse assessed as impair in motor coordination at 300 mg/kg, ip after 0.5 hrs by rotarod test; assay type: toxicity, organism-based; design: dose 300 mg/kg, route intraperitoneal; settings: in vivo
quantity name: Activity

Known results for molecules:
O=C1C(c2ccccc2)CC(c2ccccc2)C(=O)N1c1ccccc1 (stereo not drawn) : Toxic
O=C1C(c2ccccc2)CC(c2ccccc2)C(=O)N1c1cccc(Cl)c1 (stereo not drawn) : Toxic
O=C1NC(=O)C(c2ccccc2)CC1c1ccccc1 (stereo not drawn) : Non-toxic
O=C1C(c2ccccc2)CC(c2ccccc2)C(=O)N1Cc1ccccc1 (stereo not drawn) : Non-toxic
NN1C(=O)C(c2ccccc2Cl)CC(c2ccccc2Cl)C1=O (stereo not drawn) : Toxic
O=C1C(c2ccccc2Cl)CC(c2ccccc2Cl)C(=O)N1c1ccccc1 (stereo not drawn) : Non-toxic
O=C1C(c2ccccc2Cl)CC(c2ccccc2Cl)C(=O)N1Cc1ccccc1 (stereo not drawn) : Non-toxic
NN1C(=O)C(c2ccccc2)CC(c2ccccc2)C1=O (stereo not drawn) : Non-toxic
O=C1C(c2ccccc2Cl)CC(c2ccccc2Cl)C(=O)N1c1cccc(Cl)c1 (stereo not drawn) : Non-toxic
Cc1ccccc1N1C(=O)C(c2ccccc2)CC(c2ccccc2)C1=O (stereo not drawn) : Toxic

Quick note, Activity for O=C1NC(=O)C(c2ccccc2Cl)CC1c1ccccc1Cl (stereo not drawn) landed at Non-toxic

Query Cc1ccc(N2C(=O)C(c3ccccc3Cl)CC(c3ccccc3Cl)C2=O)cc1 (stereo not drawn) yields Activity of Toxic

According to the records, this molecule Cc1ccccc1N1C(=O)C(c2ccccc2Cl)CC(c2ccccc2Cl)C1=O (stereo not drawn) displays Activity of Non-toxic

====

Ratio TD50/ED50 values, listed per item
species on record: Mus musculus; assay: Protection index, ratio of TD50 for Swiss albino mouse by rotarod test to ED50 for Swiss albino mouse by maximal electroshock test; assay type: functional
// response body must contain only the number

Below: 8 compounds and their reported Ratio TD50/ED50.
O=C1C(c2ccccc2Cl)CC(c2ccccc2Cl)C(=O)N1c1ccccc1 (stereo unspecified) : 3.2
O=C1C(c2ccccc2)CC(c2ccccc2)C(=O)N1Cc1ccccc1 (stereo unspecified) : 15.6
Cc1ccc(N2C(=O)C(c3ccccc3Cl)CC(c3ccccc3Cl)C2=O)cc1 (stereo unspecified) : 2.1
Cc1ccccc1N1C(=O)C(c2ccccc2Cl)CC(c2ccccc2Cl)C1=O (stereo unspecified) : 8.3
Cc1ccc(N2C(=O)C(c3ccccc3)CC(c3ccccc3)C2=O)cc1 (stereo unspecified) : 2.3
O=C1NC(=O)C(c2ccccc2Cl)CC1c1ccccc1Cl (stereo unspecified) : 7
NC(=O)N1c2ccccc2C=Cc2ccccc21 [CARBAMAZEPINE] : 6.4
NN1C(=O)C(c2ccccc2)CC(c2ccccc2)C1=O (stereo unspecified) : 12.3

In plain terms, Cc1ccccc1N1C(=O)C(c2ccccc2)CC(c2ccccc2)C1=O (stereo unspecified) has a documented Ratio TD50/ED50 of 4.9

response.value for NN1C(=O)C(c2ccccc2Cl)CC(c2ccccc2Cl)C1=O (stereo unspecified) (field: Ratio TD50/ED50) = 10.6

Ratio TD50/ED50 for O=C1C(c2ccccc2Cl)CC(c2ccccc2Cl)C(=O)N1Cc1ccccc1 (stereo unspecified) is 2.7
